test: logD value was determined; type: physicochemical; conditions: octanol/water

# compound.structure, logD
measured = [
    ("Cc1nc(C#Cc2ccc(-c3ccncc3)nc2)cs1", 2.9),
    ("Cc1cccc(C#Cc2csc(C)n2)c1", 3.9),
    ("Cc1nc(C#Cc2ccccc2C)cs1", 3.8),
    ("Cc1nc(C#Cc2cncc(-c3ccccc3)c2)cs1", 4.1),
    ("Cc1nc(C#Cc2ccc(-c3ccccc3)cc2)cs1", 5),
    ("Cc1nc(C#Cc2cncc(-c3ccncc3)c2)cs1", 2.6),
    ("Cc1nc(C#Cc2cncc(-c3cccnc3)c2)cs1", 2.4),
    ("Cc1ccc(C#Cc2csc(C)n2)cc1", 3.9),
    ("Cc1nc(C#Cc2cccc(-c3ccccc3)c2)cs1", 4.1),
    ("Cc1nc(C#Cc2cncc(-c3ccccn3)c2)cs1", 2.8),
    ("Cc1nc(C#Cc2ccc(-c3cccnc3)nc2)cs1", 3.1),
    ("Cc1nc(C#Cc2ccc(-c3ccccn3)nc2)cs1", 3.7),
    ("Cc1nc(C#Cc2ccc(-c3ccccc3)nc2)cs1", 3.9),
]

----------
test: Bioavailability in rat (dose 2 mg/kg i.v.); assay type: ADME, organism-based; conditions: in vivo, iv
Entries and their bioavailability
readout.name: bioavailability (%)

# compound.structure, readout.name, numeric.result
data = [
    ("Cc1nc(C#Cc2ccc(-c3cccnc3)nc2)cs1", "bioavailability", 100),
    ("Cc1nc(C#Cc2cccnc2)cs1", "bioavailability", 16),
]

----------
Entries and their Cmax
assay: Maximum plasma concentration of compound after p.o. administration; type: ADME, organism-based; set-up: route oral; conditions: rat, po
readout.name: Cmax (nM)

# compound.structure, readout.name, numeric.result
measured = [
    ("Cc1nc(C#Cc2cncc(-c3cccnc3)c2)cs1", "Cmax", 800),
    ("Cc1nc(C#Cc2cccnc2)cs1", "Cmax", 2000),
    ("Cc1nc(C#Cc2ccc(-c3cccnc3)nc2)cs1", "Cmax", 6500),
]

----------
Entries and their half-life
assay: Half-life of compound after i.v. administration; type: ADME, organism-based; settings: rat, in vivo, iv

# compound.structure, half-life / h
data = [
    ("Cc1nc(C#Cc2ccc(-c3cccnc3)nc2)cs1", 0.8),
    ("Cc1nc(C#Cc2cncc(-c3cccnc3)c2)cs1", 1.6),
    ("Cc1nc(C#Cc2cccnc2)cs1", 8.3),
]

----------
experiment: Plasma clearance of compound upon i.v. administration at 1 mg/kg; type: ADME, organism-based; set-up: dose 1 mg/kg, route intravenous; conditions: rat, iv, read-out: Clp
readout.name: clearance (mL/min/kg)

# compound.structure, readout.name, unit.spec, numeric.result
rows = [
    ("Cc1nc(C#Cc2cncc(-c3cccnc3)c2)cs1", "clearance", "mL/min/kg", 29),
]

----------
assay: Plasma clearance of compound upon p.o. administration at 2 mg/kg; type: ADME, organism-based; parameters: dose 2 mg/kg, route oral; details: rat, po, read-out: Clp
readout.name: CL/F

# compound.structure, readout.name, result
rows = [
    ("Cc1nc(C#Cc2cncc(-c3cccnc3)c2)cs1", "CL/F", "29 mL/min/kg"),
]

----------
Each entry below carries its measured Ki, system: Metabotropic glutamate receptor 5 (Rattus norvegicus).
Sequence (P31424 whole entry): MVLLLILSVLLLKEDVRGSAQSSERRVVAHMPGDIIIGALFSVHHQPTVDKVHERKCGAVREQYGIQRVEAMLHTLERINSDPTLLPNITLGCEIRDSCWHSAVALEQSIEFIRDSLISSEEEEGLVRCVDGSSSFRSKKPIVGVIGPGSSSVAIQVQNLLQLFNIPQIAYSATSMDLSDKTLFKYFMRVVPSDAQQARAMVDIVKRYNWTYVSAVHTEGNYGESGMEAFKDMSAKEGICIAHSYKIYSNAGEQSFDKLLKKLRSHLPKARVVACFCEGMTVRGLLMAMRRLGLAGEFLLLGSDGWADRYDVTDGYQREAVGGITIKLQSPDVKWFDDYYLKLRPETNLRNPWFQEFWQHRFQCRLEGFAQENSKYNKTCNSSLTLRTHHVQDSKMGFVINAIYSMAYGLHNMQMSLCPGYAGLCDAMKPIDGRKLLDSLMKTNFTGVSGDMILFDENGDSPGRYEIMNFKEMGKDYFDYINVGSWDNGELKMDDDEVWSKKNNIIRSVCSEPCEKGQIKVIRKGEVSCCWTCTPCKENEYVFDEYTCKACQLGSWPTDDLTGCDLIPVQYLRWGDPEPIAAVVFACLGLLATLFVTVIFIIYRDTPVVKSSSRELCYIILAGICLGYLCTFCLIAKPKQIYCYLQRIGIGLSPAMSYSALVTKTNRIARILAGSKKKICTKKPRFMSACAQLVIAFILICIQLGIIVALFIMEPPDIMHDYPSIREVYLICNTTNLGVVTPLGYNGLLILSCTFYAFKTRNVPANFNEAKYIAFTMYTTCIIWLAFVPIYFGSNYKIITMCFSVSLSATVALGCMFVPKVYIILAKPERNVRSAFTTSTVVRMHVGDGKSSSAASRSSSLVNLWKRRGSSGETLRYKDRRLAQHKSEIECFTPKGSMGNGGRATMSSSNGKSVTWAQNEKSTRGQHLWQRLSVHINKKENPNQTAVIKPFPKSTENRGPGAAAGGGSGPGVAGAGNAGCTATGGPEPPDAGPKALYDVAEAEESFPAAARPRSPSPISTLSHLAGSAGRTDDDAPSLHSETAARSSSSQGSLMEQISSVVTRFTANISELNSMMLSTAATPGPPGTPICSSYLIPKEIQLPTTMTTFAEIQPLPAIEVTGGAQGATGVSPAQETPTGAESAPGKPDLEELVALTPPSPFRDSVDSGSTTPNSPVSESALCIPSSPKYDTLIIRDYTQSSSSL
readout.name: Ki (µM)

# compound.structure, unit.spec, numeric.result
rows = [
    ("Cc1ccc(C#Cc2csc(C)n2)cc1", "µM", 0.638),
    ("Cc1nc(C#Cc2ccccc2-c2ccccc2)cs1", "µM", 0.145),
    ("Cc1nc(C#Cc2ccccc2C)cs1", "µM", 0.051),
    ("Cc1nc(C#Cc2cncc(-c3ccccn3)c2)cs1", "µM", 0.028),
    ("Cc1nc(C#Cc2ccccc2)cs1", "µM", 0.009),
    ("Cc1nc(C#Cc2ccncc2)cs1", "µM", 0.218),
    ("Cc1nc(C#Cc2ccc(-c3ccccc3)cc2)cs1", "µM", 0.043),
    ("Cc1nc(C#Cc2cncc(-c3cccnc3)c2)cs1", "µM", 0.001),
]

Where these numbers come from: ChEMBL document CHEMBL1137127
